The reported measurements were obtained from the supplement of paper PMC10037445.

- Tested on: RAW-Dual
- EXPERIMENT: NF-kB SEAP reporter activity, fold change vs agonist alone; cytotoxicity flag (confluency mask): not cytotoxic; higher = enhanced NF-kB activity
- CONDITION PARAMETERS: agonist: Pam2CSK4 (TLR2/6) 0.1 ug/mL
In all, about 2,900 compounds were measured (“NF-kB SEAP reporter activity, fold change vs agonist alone”: median about 0.99, highest 2% from about 2.6 on). The full list was thinned out, with the highest values kept by preference.
Binned NF-kB SEAP reporter activity; ranges: 0: < 0.4; 1: ≥ 0.4 and < 1; 2: ≥ 1

Before answering, review these 2 worked examples.
COMPOUND: COC1/C=C\C=C(/C)C(=O)NC2=CC(=O)C(NCCN(C)C)=C(CC(C)CC(OC)C(O)C(C)/C=C(\C)C1OC(N)=O)C2=O.Cl (stereo unspecified) (library stock concentration (final ~1000-fold dilution): 10 mM)
CLASS: 0
//
COMPOUND: COC1(c2sc3c(N4CCOCC4)nc(-c4cnc(N)nc4)nc3c2C)COC1 (library stock concentration (final ~1000-fold dilution): 10 mM)
CLASS: 1

Qu. Category lookup for the compound Nc1nc(-c2ccco2)c2cnn(Cc3ccccc3F)c2n1 (library stock concentration (final ~1000-fold dilution): 10 mM)
Ans. 2

Qu. Also CC(NC(=O)c1ncnc(N)c1Cl)c1ncc(C(=O)Nc2cc(C(F)(F)F)c(Cl)cn2)s1 (stereo unspecified) (library stock concentration (final ~1000-fold dilution): 10 mM) ?
Ans. 0

Qu. Also COc1ccc(CNC(=O)Nc2ncc([N+](=O)[O-])s2)cc1 (library stock concentration (final ~1000-fold dilution): 10 mM) ?
Ans. 1

Qu. Also CNC(=O)c1ccccc1Nc1nc(Nc2ccc(N3CCOCC3)cc2OC)ncc1Cl (library stock concentration (final ~1000-fold dilution): 10 mM) ?
Ans. 0

Qu. Also C=CC1CN2CCC1CC2C(O)c1ccnc2ccc(OC)cc12.C=CC1CN2CCC1CC2C(O)c1ccnc2ccc(OC)cc12.O.O.O=S(=O)(O)O (stereo unspecified) (library stock concentration (final ~1000-fold dilution): 10 mM) ?
Ans. 2

Qu. Also CC1OC(OC2C(O)C(OCCc3ccc(O)c(O)c3)OC(CO)C2OC(=O)/C=C/c2ccc(O)c(O)c2)C(O)C(O)C1O (stereo unspecified) (library stock concentration (final ~1000-fold dilution): 10 mM) ?
Ans. 2

Qu. Also Nc1ccc(F)cc1NC(=O)c1ccc(CNC(=O)/C=C/c2cccnc2)cc1 (library stock concentration (final ~1000-fold dilution): 10 mM) ?
Ans. 1

Qu. Also O=C(/C=C/c1cccnc1)c1ccncc1 (library stock concentration (final ~1000-fold dilution): 10 mM) ?
Ans. 2
